assay: Pharmacokinetics assay in rats; format: in vivo, SD rats; details: SD rats, intragastric, 50 mg/Kg (as free acid); 50 mg/kg
Recorded Metric: Plasma Conc. Cmax
Quick note: number first, unit second.

Some solved cases for reference:
- CC1=NN(c2ccc3c(c2)C(C)(C)CC3)C(=O)/C1=N\Nc1cccc(-c2ccc(C(=O)O)o2)c1O [Example 6]: 13000 ± 6500 ng/mL
- CC1=NN(c2ccc3c(c2)CCC3)C(=O)/C1=N\Nc1cccc(-c2csc(C(=O)O)c2)c1O [Example 21]: 61100 ± 1380 ng/mL

Turning to the following compound.
Prompt: Which Plasma Conc. Cmax reading was recorded for the compound CC1=NN(c2ccc3c(c2)CCCC3)C(=O)/C1=N\Nc1cccc(-c2ccc(C(=O)O)o2)c1O [Example 13] ?
Response: 8100 ± 3350 ng/mL
